Molecular target: T1, canine NGF tagged at the C-terminus with the Flag tag (canine, UniProt A0A8I3PYI3 122-241)
T1 construct: mature; Expressed with baculovirus technology; also called feline NGF (processed form identical)
T1 sequence (A0A8I3PYI3 entry or part of it): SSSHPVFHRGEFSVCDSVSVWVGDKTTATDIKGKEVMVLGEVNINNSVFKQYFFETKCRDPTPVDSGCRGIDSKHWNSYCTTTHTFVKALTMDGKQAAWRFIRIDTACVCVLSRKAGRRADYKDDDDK
Experiment: SPR off-rate screen, Fab-SASA on BSA chip
REPORTED METRIC: koff (s⁻¹)
Please reply with the bare figure in s⁻¹ and do not write the unit itself.

What the record says about felinized clone 101 Fab-SASA variant D104E (VH) (Fab, V domains shown, not shown: small tags and cut ends) VH: DVQLVESGGDLVKPGGSLRLTCVASGLSLTSSSMSWVRQAPGKGLQWVSTIYSNGGTYYTDSVKGRFTISKDNAENTLYLQMNNLKTEDTATYYCASIYYYDAEYLHWYFDFWGQGALVTVSS VL: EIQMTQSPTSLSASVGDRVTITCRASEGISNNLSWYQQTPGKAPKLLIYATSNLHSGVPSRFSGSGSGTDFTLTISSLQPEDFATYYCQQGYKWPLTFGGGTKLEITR : koff is 0.000426

What the record says about felinized clone 101 Fab-SASA variant T30N (VH) (Fab, V domains shown, not shown: small tags and cut ends) VH: DVQLVESGGDLVKPGGSLRLTCVASGLSLNSSSMSWVRQAPGKGLQWVSTIYSNGGTYYTDSVKGRFTISKDNAENTLYLQMNNLKTEDTATYYCASIYYYDADYLHWYFDFWGQGALVTVSS VL: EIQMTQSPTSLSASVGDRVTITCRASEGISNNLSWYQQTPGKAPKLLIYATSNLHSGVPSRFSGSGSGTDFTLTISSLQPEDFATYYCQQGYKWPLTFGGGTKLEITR : koff is 0.000704

What the record says about felinized clone 101 Fab-SASA variant L54H (VL) (Fab, V domains shown, not shown: small tags and cut ends) VH: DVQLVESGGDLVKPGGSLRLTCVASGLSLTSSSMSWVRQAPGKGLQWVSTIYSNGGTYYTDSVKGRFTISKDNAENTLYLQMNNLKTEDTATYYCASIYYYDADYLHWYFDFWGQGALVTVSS VL: EIQMTQSPTSLSASVGDRVTITCRASEGISNNLSWYQQTPGKAPKLLIYATSNHHSGVPSRFSGSGSGTDFTLTISSLQPEDFATYYCQQGYKWPLTFGGGTKLEITR : koff is 0.00056

We now examine a further binder.
What the record says about felinized clone 101 Fab-SASA variant S30Y (VL) (Fab, V domains shown, not shown: small tags and cut ends) VH: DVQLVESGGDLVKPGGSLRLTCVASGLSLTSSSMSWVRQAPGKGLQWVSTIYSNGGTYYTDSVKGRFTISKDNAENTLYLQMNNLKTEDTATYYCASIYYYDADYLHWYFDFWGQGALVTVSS VL: EIQMTQSPTSLSASVGDRVTITCRASEGIYNNLSWYQQTPGKAPKLLIYATSNLHSGVPSRFSGSGSGTDFTLTISSLQPEDFATYYCQQGYKWPLTFGGGTKLEITR : koff is 0.000782
